test: mitochondrial membrane potential change in A549 cells, profiling panel, cell-based, JC-1 fluorescence, basal, 24 h, 100 nL (AID 1138); settings: higher = more signal;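 note: A549 lung adenocarcinoma cells under basal conditions with no added stimulus; test concentration not given here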
This listing pairs compounds with measured z-score.
Answer using only a numeral; do not append any unit.

Here are 4 compounds together with their reported answers.
>  <Compound>
COc1ccccc1CN1C(=O)c2ccccc2[C@@H](C(=O)NCCCN(C)C)[C@@H]1c1ccc(CO)cc1

>  <z-score>
2.1

$$$$
>  <Compound>
COCCOC(=O)N1C(=O)[C@@]2(c3cc(C#CCC(C(=O)OC)C(=O)OC)ccc31)[C@H](C(=O)N1CCCCCCC1)[C@H]1C(=O)O[C@H](c3ccccc3)[C@H](c3ccccc3)N1[C@@H]2c1ccccc1OCCO

>  <z-score>
-1.49

$$$$
>  <Compound>
COc1ccc(CCNC(=O)[C@@]2(C)c3ccccc3C(=O)N(Cc3cc(C(F)(F)F)cc(C(F)(F)F)c3)[C@H]2c2ccc(CO)cc2)cc1

>  <z-score>
0.502

$$$$
>  <Compound>
CC1(C)OC[C@@]23C=C(Br)[C@@H](C[C@H]12)[C@@]1(CO1)C3=O

>  <z-score>
0.582

$$$$

// query z-score value for entry CCCCC(O)C1C=CC2C(=O)NC(=O)C2N1Nc1ccc(Cl)cc1Cl (configuration not stated)
-1.16

// query z-score value for entry Cc1ccc(F)cc1S(=O)(=O)N[C@@H]1CCN(Cc2ccc3[nH]ccc3c2)C1
0.316

// query z-score value for entry CCOC(=O)C[C@H]1[C@H](OC(=O)c2ccc(C(=O)c3ccccc3)cc2)[C@@H](NC(=O)c2ccc3ccccc3c2)c2cc(OCCCO)ccc2N1C(=O)c1ccc2ccccc2n1
2.1
